tested on: HS 578T breast; assay: NCI-60 one-dose screen, 48 h (100 = growth as untreated, 0 = no growth, -100 = all killed); details: 10 µM unless noted
Compounds without any hit were thinned out: in the full panel of roughly 83,000, 20% have a hit. The source made the active and inactive calls. The calls were made as follows: active = growth percent below 10; inactive = the rest.
For each entry below, report its growth value.

### Prompt Please give the measured growth for this molecule: CC1(C)N=C(N)N=C(N)N1c1ccc(CCC(=O)Nc2cccc(S(=O)(=O)F)c2)cc1
### Response 121% (inactive)

### Prompt Please give the measured growth for this molecule: CCCCCCCCCCCCOc1ccc(C(=O)Oc2ccc(CSP3(=O)OCC4OC(n5cnc6c(N)ncnc65)C(F)C4OP(=O)(O)OCC4OC(n5ccc(=O)[nH]c5=O)C(F)C4O3)cc2)cc1 (stereo not given)
### Response 117% (inactive)

### Prompt Please give the measured growth for this molecule: C/C(=N/OC(=O)N(C)C)c1ccc(Cl)cc1Cl
### Response 107% (inactive)

### Prompt Please give the measured growth for this molecule: NC(=O)OCC(CO)(c1ccccc1)c1ccccc1
### Response 110% (inactive)

### Prompt Please give the measured growth for this molecule: COC[CH2][Hg][C]#[C][Hg][CH2]COC
### Response 85.3% (inactive)
